Target: Recombinant human caspase-10 (Homo sapiens, UniProt Q92851)
Sequence (Q92851 220-415 limits assumed): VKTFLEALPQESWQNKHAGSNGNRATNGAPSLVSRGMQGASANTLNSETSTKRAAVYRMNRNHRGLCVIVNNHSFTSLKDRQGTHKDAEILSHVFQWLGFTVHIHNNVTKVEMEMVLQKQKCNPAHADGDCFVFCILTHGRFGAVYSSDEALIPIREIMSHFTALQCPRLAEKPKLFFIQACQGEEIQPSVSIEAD
Sequence (Q92851 416-521 limits assumed): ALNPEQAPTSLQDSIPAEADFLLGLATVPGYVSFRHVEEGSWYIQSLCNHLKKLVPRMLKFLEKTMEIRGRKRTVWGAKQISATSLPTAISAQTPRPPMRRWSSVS
Assay: M867 potency against recombinant human caspase-10
assay-metric: pKi
API: returns pKi as number; meaning -log10 of concentration in mol/L.

Exercise: Form field: reported pKi of CCCCCN(C)CC(=O)[C@H](CC(=O)O)NC(=O)[C@H](CC)n1cc(C(C)(C)C)nc(NCc2nonc2C)c1=O [M867]
Key: 4.53

* * *

Experiment: Drug levels in plasma, blood and spleen of rats under continuous i.v. infusion
Assay type: in vivo
Conditions: rat, plasma, intravenous, 2 mg/kg/h
assay-metric: concentration at 24 h (nM)
Return type: number; implicit unit nM.

Exercise: Endpoint output: concentration at 24 h of CCCCCN(C)CC(=O)[C@H](CC(=O)O)NC(=O)[C@H](CC)n1cc(C(C)(C)C)nc(NCc2nonc2C)c1=O . Value?
Key: 650

* * *

Target: Recombinant human caspase-7 (Homo sapiens)
Sequence (P55210 24-198 limits assumed): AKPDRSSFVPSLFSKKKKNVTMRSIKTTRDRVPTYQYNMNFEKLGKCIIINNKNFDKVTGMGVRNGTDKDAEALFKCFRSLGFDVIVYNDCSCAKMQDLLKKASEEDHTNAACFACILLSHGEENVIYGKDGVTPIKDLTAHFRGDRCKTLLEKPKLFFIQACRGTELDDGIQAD
Sequence (P55210 207-303 limits assumed): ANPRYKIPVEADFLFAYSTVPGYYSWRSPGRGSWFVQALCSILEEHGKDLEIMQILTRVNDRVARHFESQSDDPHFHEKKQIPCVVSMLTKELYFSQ
Test: M867 potency against recombinant human caspase-7
assay-metric: pKi
Scale: negative log10 of molar concentration, which is what pKi denotes.

Exercise: For the record CCCCCN(C)CC(=O)[C@H](CC(=O)O)NC(=O)[C@H](CC)n1cc(C(C)(C)C)nc(NCc2nonc2C)c1=O , what value of pKi is listed for Recombinant human caspase-7 (Homo sapiens)?
Key: 8.05
